- target-system: human TLR7 (Homo sapiens, UniProt Q9NYK1)
- Construct: host or cells: HEK-Blue TLR7 cells (engineered human embryonic kidney cells)
- Sequence (Q9NYK1 27-1049): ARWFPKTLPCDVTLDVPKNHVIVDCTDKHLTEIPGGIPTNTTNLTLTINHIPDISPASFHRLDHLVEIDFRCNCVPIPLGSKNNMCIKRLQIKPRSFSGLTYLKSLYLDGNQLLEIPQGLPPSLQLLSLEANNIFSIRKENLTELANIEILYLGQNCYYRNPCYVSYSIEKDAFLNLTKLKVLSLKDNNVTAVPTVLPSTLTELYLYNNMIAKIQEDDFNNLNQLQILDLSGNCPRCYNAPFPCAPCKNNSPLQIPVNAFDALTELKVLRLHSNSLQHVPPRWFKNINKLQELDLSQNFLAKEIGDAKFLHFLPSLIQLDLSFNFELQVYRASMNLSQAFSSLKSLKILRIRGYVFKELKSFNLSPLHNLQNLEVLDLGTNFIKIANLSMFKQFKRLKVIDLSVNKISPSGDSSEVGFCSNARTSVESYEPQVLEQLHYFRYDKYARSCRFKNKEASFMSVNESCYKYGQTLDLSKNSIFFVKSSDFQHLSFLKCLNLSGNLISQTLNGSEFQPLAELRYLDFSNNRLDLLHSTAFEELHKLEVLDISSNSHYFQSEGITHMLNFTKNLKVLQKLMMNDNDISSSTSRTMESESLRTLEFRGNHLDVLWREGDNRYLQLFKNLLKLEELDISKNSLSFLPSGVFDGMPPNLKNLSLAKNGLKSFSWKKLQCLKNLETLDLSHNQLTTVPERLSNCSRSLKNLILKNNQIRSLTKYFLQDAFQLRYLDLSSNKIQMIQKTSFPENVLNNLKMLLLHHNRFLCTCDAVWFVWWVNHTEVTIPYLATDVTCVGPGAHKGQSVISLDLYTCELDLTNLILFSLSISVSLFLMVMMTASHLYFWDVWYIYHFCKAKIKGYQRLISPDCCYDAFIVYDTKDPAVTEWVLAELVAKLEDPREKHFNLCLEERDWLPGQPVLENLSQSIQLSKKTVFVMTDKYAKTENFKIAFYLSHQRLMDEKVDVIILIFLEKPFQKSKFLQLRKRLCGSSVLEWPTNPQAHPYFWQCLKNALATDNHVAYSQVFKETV
- assay-info: Human TLR7 agonist activity assay (HEK-Blue TLR7 SEAP reporter)
- Assay type: cell-based
- assay-context: HEK-Blue TLR7 cells, 18 h treatment, average where assay performed multiple times, read-out: hTLR7 Agonism EC50
Quick rule for you: EC50 under 100 nM gets true (1), anything else gets false (0).

Field: below-cutoff. Rule: recorded EC50 strictly less than 100 nM. Subject: CCC[C@@H](CCO)Nc1nc(N)nc2cnn(Cc3ncc(C4CCN(C5CC6(CCC6)C5)CC4)cc3OC)c12 true (1)

Field: below-cutoff. Rule: recorded EC50 strictly less than 100 nM. Subject: CCCCNc1nc(N)nc2cnn(Cc3cc(F)c(N4CCN(C(=O)CN5CC(O)C5)CC4)cc3OC)c12 false (0)

Field: below-cutoff. Rule: recorded EC50 strictly less than 100 nM. Subject: CCC[C@@H](CCO)Nc1nc(N)nc2cnn(Cc3nc(C4CCNCC4)ccc3OC)c12 false (0)

Field: below-cutoff. Rule: recorded EC50 strictly less than 100 nM. Subject: CCC[C@@H](CCO)Nc1nc(N)nc2cnn(Cc3ncc(C4CCN(C5CN(C(C)C)C5)CC4)cc3OC)c12 true (1)

Field: below-cutoff. Rule: recorded EC50 strictly less than 100 nM. Subject: COc1cc(C2CCN(CCO)CC2)cnc1Cn1ncc2nc(N)nc(NCC3CC4(CC4)C3)c21 true (1)

Field: below-cutoff. Rule: recorded EC50 strictly less than 100 nM. Subject: CCC[C@@H](CCO)Nc1nc(N)nc2cnn(Cc3ncc(C4CCN(C5CN(C)C5)CC4)cc3OC)c12 true (1)

Field: below-cutoff. Rule: recorded EC50 strictly less than 100 nM. Subject: COc1cc(C2CCNCC2)cnc1Cn1ncc2nc(N)nc(NCC3CC4(CC4)C3)c21 false (0)
